Assay: Primary qHTS for inhibitors of MERS-S pseudo-typed particle cell entry (AID 1479149); also: nearly all actives have a fitted effect of over 60% in size; also: potency is read from the fitted curve at half-maximal effect
Settings: MERS-S pseudotyped particle entry, luciferase; series mostly up to 57.1 µM
Results filed as inconclusive are left out. Active and inactive are the calls of the source. Calls follow the shape of the full dose curve.
PARAMETER: Potency

INSERT INTO measurements (compound, result) VALUES
  ('CCN(CC)CCNC(=O)c1c(C)[nH]c(/C=C2\C(=O)Nc3ccc(F)cc32)c1C', '11.2 µM (active)'),
  ('Cc1onc(-c2c(Cl)cccc2Cl)c1C(=O)N[C@@H]1C(=O)N2[C@@H]1SC(C)(C)[C@@H]2C(=O)O', 'inactive'),
  ('COCCCC/C(=N\OCCN)c1ccc(C(F)(F)F)cc1', 'inactive'),
  ('Oc1cc(Cl)ccc1Oc1ccc(Cl)cc1Cl', 'inactive'),
  ('O=C(NCCN1CCOCC1)c1ccc(Cl)cc1', 'inactive');

Short answer for CCCc1nc2c(C)cc(-c3nc4ccccc4n3C)cc2n1Cc1ccc(-c2ccccc2C(=O)O)cc1 : Potency was inactive

Short answer for CN(CCOc1ccc(NS(C)(=O)=O)cc1)CCc1ccc(NS(C)(=O)=O)cc1 : Potency was inactive

Short answer for O=C(c1ccc(OCCN2CCCCC2)cc1)c1c(-c2ccc(O)cc2)sc2cc(O)ccc12 : Potency was 11.2 µM (active)

Short answer for CN(CCOc1ccc(CC2SC(=O)NC2=O)cc1)c1ccccn1 (stereo unspecified) : Potency was inactive

Short answer for CC(C)(C#N)c1cc(Cn2cncn2)cc(C(C)(C)C#N)c1 : Potency was inactive

Short answer for OC(Cn1cncn1)(Cn1cncn1)c1ccc(F)cc1F : Potency was inactive

----------
Details: Ebola virus entry assay, blue channel fluorescence
Activity calls are given as the source filed them. How the calls were made is not given here.
Write down one outcome, taken from active, inactive

Tell me the assay call for c1ccc(C2CC2)c(OCC2=NCCN2)c1 please.
active

Tell me the assay call for CC(C)C[C@H](NC(=O)[C@H](CCc1ccccc1)NC(=O)CN1CCOCC1)C(=O)N[C@@H](Cc1ccccc1)C(=O)N[C@@H](CC(C)C)C(=O)[C@@]1(C)CO1 please.
active

Tell me the assay call for O=C1NCN(c2ccccc2)C12CCN(CC1COc3ccccc3O1)CC2 (configuration not stated) please.
inactive

Tell me the assay call for Oc1ccccc1-c1ccccc1 please.
inactive

Tell me the assay call for O=C(c1ccc(OCCN2CCCCC2)cc1)c1c(-c2ccc(O)cc2)sc2cc(O)ccc12 please.
active

Tell me the assay call for CNCCCC1c2ccccc2C=Cc2ccccc21 please.
active

----------
Test: Cell Viability - LYMP2-017 (AID 972);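 also: cells exposed to compound for 24 hours at 37 °C; nearly all actives have a fitted effect of over 55% in size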
Settings: LYMP2-017 lymphoblastoid cell viability; series mostly up to 92.2 µM
Records with an inconclusive call do not appear. The source made the active and inactive calls. The call rests on the fitted dose curve; in most records, active means well fitted cell-killing curve with a large enough effect; inconclusive means small, poorly fitted or top-dose-only effect; inactive means flat fitted curve, though single readings scatter.
Write down one outcome, taken from yes (1) = active, no (0) = inactive

INSERT INTO results (molecule, category_label) VALUES
  ('Oc1ccc(Cl)cc1Cc1ccccc1', 'no (0)'),
  ('c1ccc2c(c1)Nc1ccccc1S2', 'no (0)'),
  ('CCCC(C)(COC(N)=O)COC(=O)NC(C)C (stereo not drawn)', 'no (0)');

Tell me the assay call for NCC(O)c1ccc(O)cc1 (stereo not drawn) please.
no (0)

Tell me the assay call for OCCOc1ccccc1 please.
no (0)

Tell me the assay call for CNCC(O)c1ccc(O)cc1 (stereo not drawn) please.
no (0)

Tell me the assay call for CC(COc1ccccc1)N(CCCl)Cc1ccccc1 (stereo not drawn) please.
yes (1)

Tell me the assay call for Oc1ccccc1-c1ccccc1 please.
no (0)

----------
Target: Cytochrome P450 2C9 (Homo sapiens) (UniProt P11712)
Sequence (P11712 whole entry, looked up): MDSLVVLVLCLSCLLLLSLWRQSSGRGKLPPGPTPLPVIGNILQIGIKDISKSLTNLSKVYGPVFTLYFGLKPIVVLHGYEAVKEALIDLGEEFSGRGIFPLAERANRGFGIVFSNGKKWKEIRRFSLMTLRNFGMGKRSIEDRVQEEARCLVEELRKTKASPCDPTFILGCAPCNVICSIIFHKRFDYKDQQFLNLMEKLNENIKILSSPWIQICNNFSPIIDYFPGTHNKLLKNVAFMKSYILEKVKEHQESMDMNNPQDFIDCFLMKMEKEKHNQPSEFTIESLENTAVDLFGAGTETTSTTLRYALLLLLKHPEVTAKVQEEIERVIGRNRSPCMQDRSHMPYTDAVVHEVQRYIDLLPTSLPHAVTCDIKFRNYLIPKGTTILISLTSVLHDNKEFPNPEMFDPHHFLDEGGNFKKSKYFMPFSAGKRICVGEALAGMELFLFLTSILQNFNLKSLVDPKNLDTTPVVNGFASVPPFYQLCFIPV
Test: Cytochrome P450 family 2 subfamily C member 9 (CYP2C9) small molecule antagonists: luciferase biochemical (cell-free) qHTS assay (AID 1645842); also: % is scaled to controls: 0 for no effect and ±100 for the full control effect; nearly all actives have a fitted effect of over 55% in size
Conditions: P450-Glo CYP2C9 enzyme assay, luciferin luminescence; series mostly up to 57.4 µM
Results filed as inconclusive are left out. Calls of active or inactive are those of the source. Calls come from the whole dose curve; as a rule, active = well fitted inhibition curve with a large enough effect in the repeat runs; inconclusive = weak or mixed curves; inactive = no such curve, though single readings can be large or run the other way.
PARAMETER: outcome

INSERT INTO results (molecule, result) VALUES
  ('NP(N)(=O)NC(=O)c1ccc(F)cc1', 'inactive'),
  ('COc1ccccc1N1CCNCC1', 'inactive'),
  ('CCCC(C)(COC(N)=O)COC(=O)NC(C)C (stereo not drawn)', 'inactive');

----------
Test system: TAB165
Assay: qHTS profiling for inhibitors of Plasmodium falciparum proliferation (AID 504749);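 also: 0% = DMSO vehicle and full inhibition = artemisinin control; nearly all actives have a fitted effect of over 60% in size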
Details: P. falciparum in erythrocytes, SYBR Green DNA, 72 h; series mostly up to 28.7 µM
Records with an inconclusive call do not appear. Active and inactive are the calls of the source. Calls come from the whole dose curve; as a rule, active = well fitted inhibition curve with a large enough effect; inconclusive = small, poorly fitted or top-dose-only effect; inactive = flat fitted curve, though single readings scatter.
Write down one outcome, taken from active, inactive

Before answering, review these 5 worked examples.
INSERT INTO measurements (compound, category_label) VALUES
  ('CCCC1CCCCN1 (stereo not drawn)', 'inactive'),
  ('COc1ccc(C(CN(C)C)C2(O)CCCCC2)cc1 (stereo not drawn)', 'inactive'),
  ('NCC(O)c1ccc(O)cc1 (stereo not drawn)', 'inactive'),
  ('CCN(C(C)=O)c1cccc(-c2ccnc3c(C#N)cnn23)c1', 'inactive'),
  ('O=C1NCN(c2ccccc2)C12CCN(CC1COc3ccccc3O1)CC2 (stereo not drawn)', 'inactive');

Tell me the assay call for Cn1c(CCCC(=O)O)nc2cc(N(CCCl)CCCl)ccc21 please.
inactive

Tell me the assay call for C=C1CC[C@@]2(O)[C@H]3Cc4ccc(O)c5c4[C@@]2(CCN3CC2CC2)[C@H]1O5 please.
inactive

----------
Test: Quantitative High-Throughput drug screen in 47 multiple myeloma cell lines against the NCATS MIPE library collection: KMS26_JCRB cell viability assay (AID 1918975); also: nearly all actives have a fitted effect of over 45% in size
Settings: KMS26 myeloma cells viability, CellTiter-Glo ATP, 48 h; series mostly up to 45.8 µM
Inconclusive results are not listed. The source made the active and inactive calls. The call rests on the fitted dose curve; in most records, active means well fitted cell-killing curve with a large enough effect; inconclusive means small, poorly fitted or top-dose-only effect, or effect the other way; inactive means no such curve, though single readings can be large or run the other way.
Write down one outcome, taken from True (active), False (inactive)

INSERT INTO results (compound, category_label) VALUES
  ('CNC(=O)N1N=C(c2ccc(N)cc2)c2cc3c(cc2CC1C)OCO3 (stereo not drawn)', 'True'),
  ('C[C@@H]1[C@@H](C(=O)C[C@H]2O[C@@H]3O[C@]4(C)CC[C@@H]5[C@H](C)CC[C@@H]([C@H]2C)[C@@]35OO4)O[C@@H]2O[C@]3(C)CC[C@H]4[C@H](C)CC[C@@H]1[C@@]24OO3', 'True');

Turning now to a further record.
Tell me the assay call for CC1=C2C[C@@H]3[C@@H](CC=C4C[C@@H](O)CC[C@@]43C)[C@@H]2CC[C@]12O[C@H]1C[C@H](C)CN[C@H]1[C@H]2C please.
False

----------
Experiment: qHTS profiling of the MIPE4 collection as inhibitors of Plasmodium falciparum (DD2) proliferation (Rep 2) (AID 743346)
Conditions: P. falciparum Dd2 in erythrocytes, SYBR Green DNA, 72 h; at 28.5 µM (top of the series) unless noted
PARAMETER: parasite growth, % of control (lower = inhibition) (%)
Express your answer in %, writing the number without its unit.

Example results:
INSERT INTO assay_data (compound, units_of_measure, numeric_value) VALUES
  ('CN(C)CCc1ccc(O)cc1', '%', 111),
  ('CCOC(=O)c1ncn2c1CN(C)C(=O)c1cc(F)ccc1-2', '%', 74.8),
  ('O=P1(NCCCl)OCCCN1CCCl (stereo unspecified)', '%', 110),
  ('CN1CCN(C(=O)O[C@H]2c3nccnc3C(=O)N2c2ccc(Cl)cn2)CC1', '%', 86.8);

--- query ---
Short answer for Cc1nc2n(c(=O)c1CCN1CCC(c3noc4cc(F)ccc34)CC1)CCCC2 : parasite growth, % of control (lower = inhibition) was 48.7

----------
Test: Quantitative High-Throughput drug screen in 47 multiple myeloma cell lines against the NCATS MIPE library collection: XG6_PLB cell viability assay (AID 1919865); also: nearly all actives have a fitted effect of over 40% in size
Details: XG6 myeloma viability, CellTiter-Glo ATP luminescence, 48 h; series mostly up to 45.8 µM
Inconclusive results are not listed. Calls of active or inactive are those of the source. Calls come from the whole dose curve; as a rule, active = well fitted cell-killing curve with a large enough effect; inconclusive = small, poorly fitted or top-dose-only effect, or effect the other way; inactive = no such curve, though single readings can be large or run the other way.
Write down one outcome, taken from active, inactive

Before answering, review these 5 worked examples.
INSERT INTO assay_data (compound, category_label) VALUES
  ('CN(C)CCN(C)CCc1ccc(Cl)c(Cl)c1', 'inactive'),
  ('COc1ccc(C(=O)c2c(C)n(CCN3CCOCC3)c3ccccc23)cc1', 'inactive'),
  ('COC[C@H]1OC(=O)c2coc3c2[C@@]1(C)C1=C(C3=O)C2CCC(=O)[C@@]2(C)C[C@H]1OC(C)=O (some centres not stated)', 'active'),
  ('C[C@@H]1[C@@H](CC(C[C@H]2O[C@@H]3O[C@]4(C)CC[C@@H]5[C@H](C)CC[C@@H]([C@H]2C)[C@@]35OO4)C[S+](=O)([O-])c2ccc(COC(=O)N(C)C)cc2)O[C@@H]2O[C@]3(C)CC[C@H]4[C@H](C)CC[C@@H]1[C@@]24OO3 (some centres not stated)', 'active'),
  ('Fc1ccc(C(OCCN2CCN(CCCc3ccccc3)CC2)c2ccc(F)cc2)cc1', 'active');

Tell me the assay call for C[C@@H]1O[C@@H](O[C@H]2C[C@@H](O)[C@]3(CO)[C@H]4[C@H](O)C[C@]5(C)[C@@H](C6=CC(=O)OC6)CC[C@]5(O)[C@@H]4CC[C@]3(O)C2)[C@H](O)[C@H](O)[C@H]1O please.
active

Tell me the assay call for Cn1cc(C2=C(c3cn(C4CCN(Cc5ccccn5)CC4)c4ccccc34)C(=O)NC2=O)c2ccccc21 please.
active

Origin of the recorded values: PubChem BioAssay (NCATS)
